# Target: Cbl-b (Homo sapiens)
# Construct: Cbl-b-HiBit KI Jurkat Cells were purchased from Promega; host or cells: Cbl-b-HiBiT knock-in Jurkat cells
# Sequence (Q13191 whole entry): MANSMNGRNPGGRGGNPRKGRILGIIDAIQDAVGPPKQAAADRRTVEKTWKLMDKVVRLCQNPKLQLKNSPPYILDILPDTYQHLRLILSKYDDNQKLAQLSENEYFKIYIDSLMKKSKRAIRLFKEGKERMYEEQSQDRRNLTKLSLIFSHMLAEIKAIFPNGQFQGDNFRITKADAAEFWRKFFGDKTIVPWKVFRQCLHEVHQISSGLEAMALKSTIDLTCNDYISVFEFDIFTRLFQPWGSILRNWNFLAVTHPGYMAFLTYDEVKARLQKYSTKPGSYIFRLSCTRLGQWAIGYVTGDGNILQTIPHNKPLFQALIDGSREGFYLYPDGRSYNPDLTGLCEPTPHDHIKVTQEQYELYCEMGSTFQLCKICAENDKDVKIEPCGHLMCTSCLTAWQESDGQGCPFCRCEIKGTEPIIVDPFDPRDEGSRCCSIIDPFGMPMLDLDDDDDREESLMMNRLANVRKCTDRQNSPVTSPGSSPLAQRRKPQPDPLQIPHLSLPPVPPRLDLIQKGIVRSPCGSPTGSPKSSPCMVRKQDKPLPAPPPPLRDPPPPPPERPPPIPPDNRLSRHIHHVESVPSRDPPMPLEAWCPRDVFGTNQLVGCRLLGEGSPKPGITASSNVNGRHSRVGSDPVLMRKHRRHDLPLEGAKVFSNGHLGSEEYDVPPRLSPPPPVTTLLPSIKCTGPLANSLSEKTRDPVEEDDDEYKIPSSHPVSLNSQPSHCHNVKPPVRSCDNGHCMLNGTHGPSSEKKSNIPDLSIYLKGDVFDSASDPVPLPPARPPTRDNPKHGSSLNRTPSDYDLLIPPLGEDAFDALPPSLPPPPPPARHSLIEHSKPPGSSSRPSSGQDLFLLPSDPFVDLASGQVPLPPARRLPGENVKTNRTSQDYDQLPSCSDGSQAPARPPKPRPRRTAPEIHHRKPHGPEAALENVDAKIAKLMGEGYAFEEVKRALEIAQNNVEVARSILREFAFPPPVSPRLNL
# Method Notes: Cbl-b Degradation Method A (FACS, anti-Cbl-b antibody staining)
# Format: cell-based
# Experimental Setup: Jurkat, Cbl-b-HiBit KI Jurkat Cells, incubated at least 20 hours; maximum degradation observed; read-out: Cbl-b Degredation Method A Dmax (%)
Readout Type: Dmax

Compound	Target	Observed
Cc1cc(N2CCC(CN3CCC4(CC3)CN(c3cc5c(c(C(F)(F)F)c3)CN(c3cccc([C@]6(Cc7nncn7C)C[C@@H](C#N)C6)c3)C5=O)C4)CC2)c(F)c2c1C(=O)N(C1CCC(=O)NC1=O)C2 (stereo partly shown)	Cbl-b (Homo sapiens)	> 70%
CC(C)n1c(=O)n(C2CCC(=O)NC2=O)c2ccc(N3CCC(O[C@H]4CC[C@H](CN5CCN(Cc6cc7c(c(C(F)(F)F)c6)CN(c6cccc(C8(Cc9nncn9C)CC(C#N)C8)c6)C7=O)C(C)(C)C5)CC4)CC3)c(F)c21 (stereo partly shown)	Cbl-b (Homo sapiens)	35 to 70%
Cn1cnnc1CC1(c2cccc(N3Cc4c(cc(CN5CCN(C[C@H]6CC[C@H](OC7CCN(c8cccc9c8ncn9C8CCC(=O)NC8=O)CC7)CC6)CC5(C)C)cc4C(F)(F)F)C3=O)c2)CC(C#N)C1 (stereo partly shown)	Cbl-b (Homo sapiens)	35 to 70%

Now for another entry.
[in] What Dmax appears in the records for this compound with Cbl-b (Homo sapiens)? CC(C)n1c(=O)n(C2CCC(=O)NC2=O)c2cccc(N3CCC(CN4CCC5(CC4)CN(Cc4ccc(-c6cc7c(c(C(F)(F)F)c6)CN(c6cccc(C8(Cc9nncn9C)CC(C#N)C8)c6)C7=O)cc4)C5)CC3)c21 (stereo not shown)
[out] 35 to 70%

Attribution: patent US20260184710A1
